experiment: Cycloheximide Counterscreen for Small Molecule Inhibitors of Shiga Toxin; conditions: cell reporter, cycloheximide protein synthesis inhibition counterscreen; hits give high values; also: read at 38.3 µM for the half of the compounds with a filed dose; 0% is about no effect
Out of some 300,000 compounds screened, about 37,000 (12%) were called active. This is one part of a sample in which actives are shown more often than they occur.
Observation Type: max response (%)
Answers are plain numbers, in %.

Consider the following illustrative entries.
O=C(Cn1ncc(N2CCCC2)c(Br)c1=O)c1ccc(Cl)cc1 | 21.9
Cc1ccc(CN2CCC(n3nccc3NC(=O)CCCc3ccccc3)CC2)o1 | 2.06
Cn1c(=O)c2c(nc(N3CCCCCC3)n2CC(=O)c2ccc(Br)cc2)n(C)c1=O | 4.19
O=C(Cc1csc(Nc2nc(=S)[nH]c3ccccc23)n1)NCCCN1CCN(c2cccc(Cl)c2)CC1 | 1.69
CCC1=Nc2cc(C(=O)NCCCN3CCOCC3)ccc2Sc2ccc(Br)cc21 | -2.78

State recorded max response for all listed compounds.
1. O=C(NCc1ccco1)/C(=C/c1ccco1)NC(=O)c1ccccc1
2. O=C(NCc1ccncc1)C1CCCN(S(=O)(=O)c2ccc(Br)cc2)C1 (stereo not given)
3. Nc1[nH]c(=S)nc2nc(-c3ccccc3)c(-c3ccccc3)nc12
4. Cc1ccc(C(=O)N/C(=C/C=C/c2ccccc2)C(=O)NCc2ccco2)cc1
5. CNC(=O)/C(=C\C=C\c1ccccc1)NC(=O)c1ccc([N+](=O)[O-])cc1

Marked response:
1: -7.97; 2: 1.08; 3: -2.36; 4: 13.9; 5: -1.68

---

test: Cycloheximide Counterscreen for Small Molecule Inhibitors of Shiga Toxin; conditions: cell reporter, cycloheximide protein synthesis inhibition counterscreen; also: read at 38.3 µM for the half of the compounds with a filed dose; 0% is about no effect
The campaign covered roughly 300,000 compounds. About 37,000 (12%) were called active. Cut-off read from the data, not from the text of the source: active = max response mostly above about 13% (no sharp cut-off); inactive = mostly below about 14%. Many of the other results were omitted from the sample, so actives are more common in it than they were.
Answer with one of the outcomes active, inactive

Cc1cccc(NC(=O)CSCC(=O)Nc2nnc(C3CC3)s2)c1 | inactive
O=C(COC(=O)/C=C/c1cn(-c2ccccc2)nc1-c1cccnc1)Nc1ccc(Cl)cc1Cl | inactive
O=C(Cn1cncn1)N/N=C/c1c2ccccc2cc2ccccc12 | inactive

Exam item: Can you look up the reported call for Cc1ccc(CNC(=O)CCC(=O)N2CC(C)Sc3ccccc32)cc1 (stereo unspecified) for me?
Marked response: inactive

Exam item: Can you look up the reported call for COc1ccc(NC(=O)CCC(=O)Nc2nnc(C3CCCCC3)s2)cc1 for me?
Marked response: inactive

Exam item: Can you look up the reported call for Cc1occc1C(=O)Nc1nnc(-c2ccncc2)s1 for me?
Marked response: inactive

Exam item: Can you look up the reported call for O=C(Cc1cccs1)Nc1nnc(C2CC2)s1 for me?
Marked response: inactive

Exam item: Can you look up the reported call for COCC(=O)N1CCCC(C(=O)c2ccc(C(F)(F)F)cc2)C1 (stereo unspecified) for me?
Marked response: inactive

Exam item: Can you look up the reported call for CCc1ccc(Nc2ncc3c(n2)CC(c2ccco2)CC3=O)cc1 (stereo unspecified) for me?
Marked response: active

Exam item: Can you look up the reported call for O=C(Nc1nnc(C2CC2)s1)C1=NN(C2CCS(=O)(=O)C2)C(=O)CC1 (stereo unspecified) for me?
Marked response: inactive

Exam item: Can you look up the reported call for CCCCCC1CC(COc2ccccc2)OC1=O (stereo unspecified) for me?
Marked response: inactive

---

experiment: Cycloheximide Counterscreen for Small Molecule Inhibitors of Shiga Toxin; settings: cell reporter, cycloheximide protein synthesis inhibition counterscreen; hits give high values; also: read at 38.3 µM for the half of the compounds with a filed dose; 0% is about no effect
The campaign covered roughly 300,000 compounds. About 37,000 (12%) were called active. The entries come from a sample that favours actives as a whole.
Task for the reader: assign each of the following compounds its reported max response.
Give bare numbers, in %.

Consider the following illustrative entries.
CS(=O)(=O)N(C(=O)NC(=O)NC1CCS(=O)(=O)C1)C1CCCCC1 (stereo unspecified) | -1.14
Cc1cc(OC(=O)c2ccccc2Cl)ccc1N1C(=O)CCC1=O | 43.6

State recorded max response for all listed compounds.
1. CCOc1ccc(S(=O)(=O)NCc2ccc3c(c2)OCO3)cc1C
2. CN1CCN(S(=O)(=O)c2cccc(C(=O)N3CCc4ccccc43)c2)CC1
3. CCOC(=O)c1cc(OC(=O)c2ccccc2Cl)n(-c2ccccc2)n1
4. COc1ccccc1C(=O)Oc1ccc(N2C(=O)CCC2=O)cc1

Marked response:
-1.1
-1.65
28.5
-4.08
